List of Semi-quantitative analysis of proteins binding to different plaque particles: Synuclein values.
- Target Of Assay: T1, alpha-synuclein plaque particles (Homo sapiens, UniProt P37840)
- T1 construct: 140 amino acids polypeptide
- Test Details: Mass spectroscopy proteomics, semi-quantitative binding affinity of serum proteins (plaqueproteome, Table 2)
- Conditions Used: higher number = stronger affinity
Metric Name: Semi-quantitative analysis of proteins binding to different plaque particles: Synuclein

Molecule	Result
Serum paraoxonase/arylesterase (protein) AKLIALTLLGMGLALFRNHQSSYQTRLNALREVQPVELPNCNLVKGIETGSEDLEILPNGLAFISSGLKYPGIKSFNPNSPGKILLMDLNEEDPTVLELGITGSKFDVSSFNPHGISTFTDEDNAMYLLVVNHPDAKSTVELFKFQEEEKSLLHLKTIRHKLLPNLNDIVAVGPEHFYGTNDHYFLDPYLQSWEMYLGLAWSYVVYYSPSEVRVVAEGFDFANGINISPDGKYVYIAELLAHKIHVYEKHANWTLTPLKSLDFNTLVDNISVDPETGDLWVGCHPNGMKIFFYDSENPPASEVLRIQNILTEEPKVTQVYAENGTVLQGSTVASVYKGKLLIGTVFHKALYCEL	7
Caspase-14 (protein) MSNPRSLEEEKYDMSGARLALILCVTKAREGSEEDLDALEHMFRQLRFESTMKRDPTAEQFQEELEKFQQAIDSREDPVSCAFVVLMAHGREGFLKGEDGEMVKLENLFEALNNKNCQALRAKPKVYIIQACRGEQRDPGETVGGDEIVMVIKDSPQTIPTYTDALHVYSTVEGYIAYRHDQKGSCFIQTLVDVFTKRKGHILELLTEVTRRMAEAELVQEGKARKTNPEIQSTLRKRLYLQ	0
